Item-by-item account of percentage damage caused to the plant, ECHCG
System: Echinochloa crus-galli (ECHCG)
PROTOCOL DESCRIPTION: Pre-emergence herbicide glasshouse test
Format: in vivo
ASSAY CONDITIONS: 250 g/ha, evaluated after 13 days, five-point scale

Input: Value lookup for percentage damage caused to the plant, ECHCG; key = Fc1ccc(-c2nc(C(F)(F)F)nc3cccc(Oc4ncc(Cl)cn4)c23)cc1
Output: 1 (1=0-20%)

Input: Which percentage damage caused to the plant, ECHCG value belongs to FC(F)(F)c1nc(CBr)c2c(Oc3ncc(Cl)cn3)cccc2n1 ?
Output: 3 (3=41-60%)

Input: Tell me the measured percentage damage caused to the plant, ECHCG of C=CCON=CCCc1nc(C(F)(F)F)nc2cccc(Oc3ncc(Cl)cn3)c12 [Compound 1.011] , please.
Output: 4 (4=61-80%)

***
Input: Any idea what its percentage damage caused to the plant, ECHCG is? The molecule is CC(=NOCC(F)(F)F)c1nc(C(F)(F)F)nc2cccc(Oc3ncc(Cl)cn3)c12
Output: 1 (1=0-20%)

Input: Fill in: percentage damage caused to the plant, ECHCG of FC(F)c1cc(-c2nc(C(F)(F)F)nc3cccc(Oc4ncc(Cl)cn4)c23)on1 is ___
Output: 2 (2=21-40%)

Input: I would be grateful if you could share the reported percentage damage caused to the plant, ECHCG for CC(=NOCC1CC1)c1nc(C(F)(F)F)nc2cccc(Oc3ncc(Cl)cn3)c12 [Compound 1.003] .
Output: 1 (1=0-20%)

Input: Fill in the blank: the reported percentage damage caused to the plant, ECHCG of Cc1ccc(Oc2ncc(Cl)cn2)c2c(CCC3CC3)nc(C(F)(F)F)nc12 is ____.
Output: 1 (1=0-20%)

Input: Look up percentage damage caused to the plant, ECHCG: Cn1nc(-c2nc(C(F)(F)F)nc3cccc(Oc4ncc(Cl)cn4)c23)cc1C(F)F
Output: 1 (1=0-20%)

Input: Entry O=C(c1ccncc1)c1nc(C(F)(F)F)nc2cccc(Oc3ncc(Cl)cn3)c12 : reported percentage damage caused to the plant, ECHCG = ?
Output: 3 (3=41-60%)
